Measured fold change of Cadaverine concentration by item
Tested on: Klebsiella aerogenes DSM 30053
Method: fold change of Cadaverine concentration vs plate DMSO controls (fold change (ratio)); higher = more amine produced, active = hit call of the paper (significant change in both replicates, either direction)
Run Parameters: incubation time: 27 h, anaerobic, 37 °C
Structures can show the parent of a compound that is named as a salt.

{"columns": ["Compound", "Target Entity", "fold change of Cadaverine concentration"],
 "data": [
  ["CN(C)CCCSC(=N)N [Dimaprit dihydrochloride] (20 µM)", "Klebsiella aerogenes DSM 30053", 0.993],
  ["C#C[C@]1(O)CC[C@H]2[C@@H]3CCc4cc(OC)ccc4[C@H]3CC[C@@]21C [Mestranol] (20 µM)", "Klebsiella aerogenes DSM 30053", 1.01],
  ["CCCC(CCC)C(=O)O[C@H]1C[C@H]2CC[C@@H](C1)[N+]2(C)C [Anisotropine Methylbromide] (20 µM)", "Klebsiella aerogenes DSM 30053", 0.99],
  ["CC(C)(C)c1ccc(C(O)CCCN2CCC(C(O)(c3ccccc3)c3ccccc3)CC2)cc1 (centres undefined) [Terfenadine] (20 µM)", "Klebsiella aerogenes DSM 30053", 1.01]
]}

###

Tested on: Ruminococcus gnavus DSM 108212
Method: fold change of Tryptamine concentration vs plate DMSO controls (fold change (ratio)); higher = more amine produced, active = hit call of the paper (significant change in both replicates, either direction);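 for the amine columns active = adjusted P below 0.05 in both replicates with a change the same way and a mean fold change under 0.8 or over 1.25; inactive = the rest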
Run Parameters: incubation time: 27 h, anaerobic, 37 °C
Counter-ions that a name gives are not always drawn.
Labels: 1 = active, 0 = inactive

{"columns": ["Molecule", "Class"],
 "data": [
  ["O=C(O)[C@H]1/C(=C/CO)O[C@@H]2CC(=O)N21 [Clavulanate potassium salt] (20 µM)", 0],
  ["CCc1cccc2c3c([nH]c12)C(CC)(CC(=O)O)OCC3 (configuration not stated) [Etodolac] (20 µM)", 0],
  ["Clc1cc(Cl)c(OCC#CI)cc1Cl [Haloprogin] (20 µM)", 0],
  ["O=C(CO)[C@@H](O)[C@H](O)[C@@H](CO)O[C@H]1O[C@H](CO)[C@@H](O)[C@H](O)[C@H]1O [Leucrose] (50 µM)", 0],
  ["COc1ccc(CN(CCN(C)C)c2ccccn2)cc1 [Pyrilamine maleate] (20 µM)", 0],
  ["CCN(CC)CCc1nc(-c2ccccc2)no1 [Oxolamine citrate salt] (20 µM)", 0],
  ["Clc1ccc2c(c1)CCc1cccnc1C2=C1CCNCC1 [Desloratadine] (20 µM)", 0],
  ["COc1ccc(/C=C/C(=O)Nc2ccccc2C(=O)O)cc1OC [Tranilast] (20 µM)", 0],
  ["CCN1C(=O)NC(c2ccccc2)C1=O (configuration not stated) [Ethotoin] (20 µM)", 0],
  ["CC(=O)SCC(Cc1ccccc1)C(=O)NCC(=O)OCc1ccccc1 (configuration not stated) [Racecadotril] (20 µM)", 0],
  ["COc1ccc([C@@H]2Sc3ccccc3N(CCN(C)C)C(=O)[C@@H]2OC(C)=O)cc1 [Diltiazem hydrochloride] (20 µM)", 0],
  ["COC1=CC(=O)C[C@@H](C)[C@]12Oc1c(Cl)c(OC)cc(OC)c1C2=O [Griseofulvin] (20 µM)", 0],
  ["CCC(C)(C)c1ccc(CC(C)CN2C[C@@H](C)O[C@@H](C)C2)cc1 (some centres not stated) [Amorolfine hydrochloride] (20 µM)", 0],
  ["Cc1cc(C(C)(C)C)cc(C)c1CC1=NCCN1 [Xylometazoline hydrochloride] (20 µM)", 0],
  ["CC1(C)S[C@@H]2[C@H](NC(=O)[C@H](C(=O)O)c3ccsc3)C(=O)N2[C@H]1C(=O)O [Ticarcillin sodium] (20 µM)", 1],
  ["COc1ccccc1OCC(O)COC(N)=O (configuration not stated) [Methocarbamol] (20 µM)", 0],
  ["CCOc1ccccc1OC(c1ccccc1)C1CNCCO1 (configuration not stated) [Reboxetine mesylate] (20 µM)", 0],
  ["CN(C)CCN(Cc1ccc(Cl)cc1)c1ccccn1 [Chloropyramine hydrochloride] (20 µM)", 0],
  ["COc1ccc(CC2c3cc(OC)c(OC)cc3CC[N+]2(C)CCC(=O)OCCCCCOC(=O)CC[N+]2(C)CCc3cc(OC)c(OC)cc3C2Cc2ccc(OC)c(OC)c2)cc1OC (configuration not stated) [Atracurium besylate] (20 µM)", 0],
  ["NC(=O)c1ncn([C@@H]2O[C@H](CO)[C@@H](O)[C@H]2O)c1O [Mizoribine] (20 µM)", 0],
  ["CN1CCC[C@@H]1Cc1c[nH]c2ccc(CCS(=O)(=O)c3ccccc3)cc12 [Eletriptan] (20 µM)", 0],
  ["CCOC(=O)[C@H](CCc1ccccc1)N[C@@H](C)C(=O)N(CC(=O)O)C1Cc2ccccc2C1 [Delapril Hydrochloride] (20 µM)", 0],
  ["COc1ccccc1N1CCN(CC(O)COc2cccc3ccccc23)CC1 (configuration not stated) [Naftopidil dihydrochloride] (20 µM)", 0],
  ["OCCN1CCN(CCCN2c3ccccc3C=Cc3ccccc32)CC1 [Opipramol dihydrochloride] (20 µM)", 0],
  ["N[C@H](Cc1ccccc1)C(=O)O [D-phenylalanine] (20 µM)", 0],
  ["CC(NN)c1ccccc1 (configuration not stated) [Mebanazine] (20 µM)", 0],
  ["c1ccc(CC2=NCCN2)cc1 [Tolazoline hydrochloride] (20 µM)", 0],
  ["Cc1onc(-c2c(F)cccc2Cl)c1C(=O)N[C@@H]1C(=O)N2[C@@H]1SC(C)(C)[C@@H]2C(=O)O [Flucloxacillin sodium] (20 µM)", 1],
  ["COc1cccc(CCc2ccccc2OCC(CN(C)C)OC(=O)CCC(=O)O)c1 (configuration not stated) [Sarpogrelate hydrochloride] (20 µM)", 0],
  ["Fc1ccc(C(c2ccc(F)cc2)N2CCN(C/C=C/c3ccccc3)CC2)cc1 [Flunarizine dihydrochloride] (20 µM)", 0],
  ["CCn1cc(C(=O)O)c(=O)c2ccc(C)nc21 [Nalidixic acid sodium salt] (20 µM)", 0],
  ["Fc1ccc([C@@H]2CCNC[C@H]2COc2ccc3c(c2)OCO3)cc1 [Paroxetine hydrochloride] (20 µM)", 0]
]}

Reference source: the supplement of paper PMC12494721
